# testTarget: human somatostatin receptor subtype 5 (Homo sapiens)
# Construct: expressed in transfected cells
# Sequence (P35346 whole entry): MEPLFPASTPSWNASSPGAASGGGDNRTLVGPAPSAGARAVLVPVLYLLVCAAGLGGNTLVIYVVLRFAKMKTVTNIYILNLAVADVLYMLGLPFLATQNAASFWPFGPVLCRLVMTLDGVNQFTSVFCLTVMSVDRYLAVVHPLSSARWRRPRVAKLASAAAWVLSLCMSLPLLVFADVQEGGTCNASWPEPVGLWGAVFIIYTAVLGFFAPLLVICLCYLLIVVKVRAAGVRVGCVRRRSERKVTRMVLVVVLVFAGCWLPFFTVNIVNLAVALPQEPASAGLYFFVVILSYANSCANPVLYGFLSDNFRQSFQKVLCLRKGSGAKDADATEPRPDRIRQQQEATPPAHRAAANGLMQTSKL
# test: cAMP assay for SST5R (inhibition of cAMP in CHO-K1 cells)
# Format: cell-based
# measurementContext: Table A; inhibition of cAMP via human SST5 receptor; read-out: SST5 potency
What EC50 was measured for each of the following?

Hi! What's the reported EC50 for Cn1ccnc1CNC(=O)c1cnc(C#N)c(-c2cc(F)cc(F)c2)c1N1CC[C@](C)(N)C1 [1-106] on human somatostatin receptor subtype 5 (Homo sapiens)?
10 to 100 nM

Hi! What's the reported EC50 for COc1ncc(C(=O)N[C@@H](C)C2CC2)c(N2CC[C@](C)(N)C2)c1-c1cccc(OC(F)F)c1 [1-165] on human somatostatin receptor subtype 5 (Homo sapiens)?
< 10 nM

Hi! What's the reported EC50 for N#Cc1ncc(C(=O)NC2CCC(F)(F)CC2)c(N2CC[C@H](N)C2)c1-c1cc(F)cc(F)c1 [1-67] on human somatostatin receptor subtype 5 (Homo sapiens)?
< 10 nM

Hi! What's the reported EC50 for COc1cc(-c2c(C#N)ncc(C(=O)NC3CCCCC3)c2N2CC[C@](C)(N)C2)ccn1 [1-252] on human somatostatin receptor subtype 5 (Homo sapiens)?
< 10 nM
